System: L1210 (lymphoma) cells
Assay: MTT cytotoxicity assay, L1210 cells
Details: Mus musculus, L1210, 72 h, read-out: IC50 (μM) L1210, 72 h exposure, MTT, mean of three independent experiments
# note: boundary value 2 µM maps to Not fulfilled; IC50 below it maps to Fulfilled

{"molecular-string": "COc1cc(/C=C2\\CN(C)C/C(=C\\c3cc(OC)c(OC)c(OC)c3)C2=O)cc(OC)c1OC", "class-name": "Fulfilled"}
{"molecular-string": "O=C1/C(=C/c2ccccc2)CNC/C1=C\\c1ccccc1", "class-name": "Fulfilled"}
{"molecular-string": "COc1ccc(/C=C2\\CN(c3ccccc3)C/C(=C\\c3ccc(OC)c(OC)c3)C2=O)cc1OC", "class-name": "Not fulfilled"}
{"molecular-string": "CC(C)N1C/C(=C\\c2ccc([N+](=O)[O-])cc2)C(=O)/C(=C/c2ccc([N+](=O)[O-])cc2)C1", "class-name": "Fulfilled"}
{"molecular-string": "COc1cc(/C=C2\\CN(c3ccccc3)C/C(=C\\c3cc(OC)c(OC)c(OC)c3)C2=O)cc(OC)c1OC", "class-name": "Fulfilled"}
{"molecular-string": "COc1ccc(/C=C2\\CNC/C(=C\\c3ccc(OC)c(OC)c3)C2=O)cc1OC", "class-name": "Fulfilled"}
{"molecular-string": "COc1ccc(/C=C2\\CN(Cc3ccccc3)C/C(=C\\c3ccc(OC)c(OC)c3)C2=O)cc1OC", "class-name": "Not fulfilled"}
{"molecular-string": "COc1ccc(/C=C2\\CN(C)C/C(=C\\c3ccc(OC)cc3)C2=O)cc1", "class-name": "Not fulfilled"}
{"molecular-string": "O=C1/C(=C/c2ccccc2)CN(c2ccccc2)C/C1=C\\c1ccccc1", "class-name": "Not fulfilled"}
{"molecular-string": "COc1ccc(/C=C2\\CN(Cc3ccccc3)C/C(=C\\c3ccc(OC)cc3)C2=O)cc1", "class-name": "Not fulfilled"}
{"molecular-string": "COc1cc(/C=C2\\CN(C(C)C)C/C(=C\\c3ccc(O)c(OC)c3)C2=O)ccc1O", "class-name": "Not fulfilled"}
{"molecular-string": "CN1C/C(=C\\c2ccc([N+](=O)[O-])cc2)C(=O)/C(=C/c2ccc([N+](=O)[O-])cc2)C1", "class-name": "Fulfilled"}
{"molecular-string": "Cc1ccc(/C=C2\\CN(c3ccccc3)C/C(=C\\c3ccc(C)cc3)C2=O)cc1", "class-name": "Not fulfilled"}

###

Test system: L1210 (lymphoma) cells
Experiment: MTT cytotoxicity assay, L1210 cells
Conditions: Mus musculus, L1210, 72 h, read-out: IC50 (μM) L1210, 72 h exposure, MTT, mean of three independent experiments
quantity-name: log10 IC50 (log10 of the value in µM)

{"molecular-string": "COc1cc(/C=C2\\CNC/C(=C\\c3cc(OC)c(OC)c(OC)c3)C2=O)cc(OC)c1OC", "experimental-system": "L1210 (lymphoma) cells", "value-observed": -0.49}
{"molecular-string": "COc1cc(/C=C2\\CN(Cc3ccccc3)C/C(=C\\c3ccc(O)c(OC)c3)C2=O)ccc1O", "experimental-system": "L1210 (lymphoma) cells", "value-observed": 0.45}
{"molecular-string": "Cc1ccc(/C=C2\\CN(C(C)C)C/C(=C\\c3ccc(C)cc3)C2=O)cc1", "experimental-system": "L1210 (lymphoma) cells", "value-observed": 0.40}
{"molecular-string": "COc1ccc(/C=C2\\CN(c3ccccc3)C/C(=C\\c3ccc(OC)c(O)c3)C2=O)cc1O", "experimental-system": "L1210 (lymphoma) cells", "value-observed": 0.78}
{"molecular-string": "COc1ccc(/C=C2\\CNC/C(=C\\c3ccc(OC)c(O)c3)C2=O)cc1O", "experimental-system": "L1210 (lymphoma) cells", "value-observed": -0.05}

###

Catalogue of compounds with associated IC50
Test system: L1210 (lymphoma) cells
Assay: MTT cytotoxicity assay, L1210 cells
Settings: Mus musculus, L1210, 72 h, read-out: IC50 (μM) L1210, 72 h exposure, MTT, mean of three independent experiments

{"compound": "COc1cc(/C=C2\\CNC/C(=C\\c3ccc(O)c(OC)c3)C2=O)ccc1O [IA-6]", "unit-name": "µM", "IC50": 0.9}
{"compound": "COc1ccc(/C=C2\\CN(Cc3ccccc3)C/C(=C\\c3ccc(OC)c(O)c3)C2=O)cc1O [ID-5]", "unit-name": "µM", "IC50": 3.1}
{"compound": "O=C1/C(=C/c2ccccc2)CN(Cc2ccccc2)C/C1=C\\c1ccccc1 [ID-1]", "unit-name": "µM", "IC50": 3.4}
{"compound": "COc1ccc(/C=C2\\CN(C(C)C)C/C(=C\\c3ccc(OC)c(O)c3)C2=O)cc1O [IC-5]", "unit-name": "µM", "IC50": 0.4}
{"compound": "COc1cc(/C=C2\\CN(c3ccccc3)C/C(=C\\c3ccc(O)c(OC)c3)C2=O)ccc1O [IE-6]", "unit-name": "µM", "IC50": 2.8}
{"compound": "O=C1/C(=C/c2ccc([N+](=O)[O-])cc2)CNC/C1=C\\c1ccc([N+](=O)[O-])cc1 [IA-3]", "unit-name": "µM", "IC50": 0.3}
{"compound": "Cc1ccc(/C=C2\\CN(Cc3ccccc3)C/C(=C\\c3ccc(C)cc3)C2=O)cc1 [ID-2]", "unit-name": "µM", "IC50": 9}
{"compound": "COc1cc(/C=C2\\CN(Cc3ccccc3)C/C(=C\\c3cc(OC)c(OC)c(OC)c3)C2=O)cc(OC)c1OC [ID-8]", "unit-name": "µM", "IC50": 3.6}
{"compound": "CN1C/C(=C\\c2ccccc2)C(=O)/C(=C/c2ccccc2)C1 [IB-1]", "unit-name": "µM", "IC50": 2.4}

###

Test system: A2780-cisplatin resistant spheroids
Experiment: CellTiter-Glo 3D cell viability assay, A2780-cisplatin resistant spheroids
Assay type: cell-based
Conditions: 96 h exposure, 3D CellTiter-Glo
pIC50: −log10 of the molar value.
Catalogue of compounds with associated pIC50
quantity-name: pIC50

{"compound": "CC1(C)C=C(CN2C/C(=C\\c3ccc(F)cc3)C(=O)/C(=C/c3ccc(F)cc3)C2)C(C)(C)N1O [HO-3867, reference compound]", "experimental-system": "A2780-cisplatin resistant spheroids", "value-observed": 4.53}
{"compound": "O=[N+]([O-])c1ccc2c(c1)S(=O)(=O)C=C2 [Stattic]", "experimental-system": "A2780-cisplatin resistant spheroids", "value-observed": 5.04}
{"compound": "COc1cc(/C=C/C(=O)CC(=O)/C=C/c2ccc(O)c(OC)c2)ccc1O [Curcumin]", "experimental-system": "A2780-cisplatin resistant spheroids", "value-observed": 4.43}
{"compound": "O=C1C(O)=C([C@H]2CC[C@H](c3ccc(Cl)cc3)CC2)C(=O)c2ccccc21 [Atovaquone, reference compound]", "experimental-system": "A2780-cisplatin resistant spheroids", "value-observed": 4.61}
{"compound": "COc1cc(/C=C2\\CN(c3ccccc3)C/C(=C\\c3cc(OC)c(OC)c(OC)c3)C2=O)cc(OC)c1OC [IE-8]", "experimental-system": "A2780-cisplatin resistant spheroids", "value-observed": 5.52}

###

System: L1210 (lymphoma) cells
Test: MTT cytotoxicity assay, L1210 cells
Conditions: read-out: IC50 (μM) L1210; 72 h exposure, MTT, mean of three independent experiments; listed as 4h

{"compound": "COc1cc(/C=C2\\CNC/C(=C\\c3cc(OC)c(OC)c(OC)c3)C2=O)cc(OC)c1OC [IA-8]", "IC50": "~0.3 µM"}

###

Catalogue of compounds with associated melting point
quantity-name: melting point

{"molecular-string": "COc1ccc(/C=C2\\CN(c3ccccc3)C/C(=C\\c3ccc(OC)c(O)c3)C2=O)cc1O", "value-observed": "142 to 146 °C"}
{"molecular-string": "Cc1ccc(/C=C2\\CN(c3ccccc3)C/C(=C\\c3ccc(C)cc3)C2=O)cc1", "value-observed": "173 to 176 °C"}
{"molecular-string": "COc1ccc(/C=C2\\CN(c3ccccc3)C/C(=C\\c3ccc(OC)cc3)C2=O)cc1", "value-observed": "152 to 155 °C"}
{"molecular-string": "O=C1/C(=C/c2ccc([N+](=O)[O-])cc2)CN(c2ccccc2)C/C1=C\\c1ccc([N+](=O)[O-])cc1", "value-observed": "184 to 188 °C"}
{"molecular-string": "COc1cc(/C=C2\\CN(c3ccccc3)C/C(=C\\c3ccc(O)c(OC)c3)C2=O)ccc1O", "value-observed": "139 to 143 °C"}
{"molecular-string": "COc1ccc(/C=C2\\CN(c3ccccc3)C/C(=C\\c3ccc(OC)c(OC)c3)C2=O)cc1OC", "value-observed": "144 to 148 °C"}
{"molecular-string": "COc1ccc(/C=C2\\CN(C(C)C)C/C(=C\\c3ccc(OC)c(O)c3)C2=O)cc1O", "value-observed": "165 to 168 °C"}
